# TARGET ENTITY: T1, NpF2164g6 (1052–1206), N-terminal truncation (phycocyanobilin (PCB) chromophore linked to Cys90 (construct numbering); 15N label for NMR)
# T1 chain: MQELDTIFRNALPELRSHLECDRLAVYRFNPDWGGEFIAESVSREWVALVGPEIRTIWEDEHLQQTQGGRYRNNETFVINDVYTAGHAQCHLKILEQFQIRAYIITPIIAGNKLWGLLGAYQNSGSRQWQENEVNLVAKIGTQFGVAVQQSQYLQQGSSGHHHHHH
# METHOD DESCRIPTION: dark state (Pr), thermal reversion
PROPERTY NAME: Kd (µM)
# unit: µM | format: bare number

Ask: Kd lookup needed for BNp-Red-1.0 (binder of NpF2164g6-Red state) (designed binder) MKLATIDQWLLKNAKEDAIAELKKAGITSDAYFNLINDAFDVDYVNYRKNKILKAHAGSSGLEHHHHHH , thanks.
Result: 7
